Assay Text: Solubility
Format: physicochemical
Assay Setup: FaSSIF
Quantity Name: solubility (µg/mL)
State just the number; it will be interpreted in µg/mL.

Query string: Quick one: solubility for O=C(c1ccc(F)cc1)N1CCc2nc(COc3cccc(F)c3)oc2C1 [4b] ?
Result string: 10

----------
Assay Text: Solubility
Assay type: physicochemical
Assay Setup: SGF
Quantity Name: solubility (µg/mL)
Enter your answer as a number in µg/mL; do not include the unit.

Query string: Which measured solubility value corresponds to `O=C(c1ccc(F)cc1)N1CCc2nc(COc3cccc(F)c3)oc2C1` ?
Result string: 10
